Hello, the source for this data is ChEMBL document CHEMBL4321852, in case you need it.

# SYSTEM UNDER TEST: Nuclear receptor ROR-gamma (Homo sapiens, UniProt P51449)
# Sequence (P51449 whole entry): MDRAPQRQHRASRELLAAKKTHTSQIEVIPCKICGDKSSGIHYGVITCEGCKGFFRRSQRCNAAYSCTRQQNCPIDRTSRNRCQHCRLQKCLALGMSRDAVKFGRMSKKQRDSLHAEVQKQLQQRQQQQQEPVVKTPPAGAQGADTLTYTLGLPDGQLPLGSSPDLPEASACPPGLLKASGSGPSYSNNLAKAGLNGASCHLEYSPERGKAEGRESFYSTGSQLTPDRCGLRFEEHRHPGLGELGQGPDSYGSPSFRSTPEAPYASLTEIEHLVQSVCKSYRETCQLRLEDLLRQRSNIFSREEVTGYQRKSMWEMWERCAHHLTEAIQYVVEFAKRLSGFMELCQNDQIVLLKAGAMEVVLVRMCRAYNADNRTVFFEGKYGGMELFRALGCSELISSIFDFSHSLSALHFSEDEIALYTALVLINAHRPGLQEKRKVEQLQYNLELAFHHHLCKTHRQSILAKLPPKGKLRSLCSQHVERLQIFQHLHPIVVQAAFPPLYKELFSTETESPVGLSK
# MEASUREMENT DESCRIPTION: Inhibition of human full-length eGFP-tagged RORgammat expressed in human HUT78 T-cells assessed as inhibition of PMA/CD3 monoclonal antibody stimulated IL-17 secretion after 48 hrs by ELISA
# Format: cell-based
pIC50: −log10 of the molar value.
MEASURE NAME: pIC50

* Cc1c(C2(C(F)(F)F)CC2)nc(C2CC2)n1-c1c(Cl)ccc(N2CC3(CC(C(=O)O)C3)C2)c1Cl (single isomer, unassigned; atropisomer) | 7.15

###

# SYSTEM UNDER TEST: Nuclear receptor ROR-beta (Homo sapiens, UniProt Q92753)
# Sequence (Q92753 whole entry, the tested form may be a part): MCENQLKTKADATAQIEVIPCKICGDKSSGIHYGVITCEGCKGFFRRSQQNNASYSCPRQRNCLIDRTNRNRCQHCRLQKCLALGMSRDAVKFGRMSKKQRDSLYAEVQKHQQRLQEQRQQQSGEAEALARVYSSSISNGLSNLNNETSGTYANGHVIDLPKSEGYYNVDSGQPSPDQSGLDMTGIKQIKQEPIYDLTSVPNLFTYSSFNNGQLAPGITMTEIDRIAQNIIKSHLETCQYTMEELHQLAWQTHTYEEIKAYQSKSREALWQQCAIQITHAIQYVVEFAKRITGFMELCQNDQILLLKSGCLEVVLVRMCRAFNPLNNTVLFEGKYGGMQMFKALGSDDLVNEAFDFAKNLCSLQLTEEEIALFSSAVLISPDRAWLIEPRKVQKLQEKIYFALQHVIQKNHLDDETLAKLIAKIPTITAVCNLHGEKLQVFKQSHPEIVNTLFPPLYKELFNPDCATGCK
# MEASUREMENT DESCRIPTION: Inhibition of Gal4-tagged RORbeta LBD (unknown origin) by cell based luciferase reporter gene assay
MEASURE NAME: IC50

• Cc1c(C2(C(F)(F)F)CC2)nc(C2CC2)n1-c1c(Cl)ccc(N2CC3(CC(C(=O)O)C3)C2)c1Cl (single isomer, unassigned; atropisomer) = > 10 µM

###

# MEASUREMENT DESCRIPTION: Tmax in DA rat at 5 mg/kg, po
# Assay type: ADME, organism-based
# CONDITION DESCRIPTION: in vivo
MEASURE NAME: Tmax (h)

• Cc1c(C2(C(F)(F)F)CC2)nc(C2CC2)n1-c1c(Cl)ccc(N2CC3(CC(C(=O)O)C3)C2)c1Cl (single isomer, unassigned; atropisomer) = 1

###

# MEASUREMENT DESCRIPTION: Oral bioavailability in DA rat at 3 mg/kg
# Type: ADME, organism-based
# CONDITION DESCRIPTION: in vivo
MEASURE NAME: bioavailability (%)

* Cc1c(C2(C(F)(F)F)CC2)nc(C2CC2)n1-c1c(Cl)ccc(N2CC3(CC(C(=O)O)C3)C2)c1Cl (single isomer, unassigned; atropisomer) | 90

###

# MEASUREMENT DESCRIPTION: Terminal half life in Sprague-Dawley rat at 1 mg/kg, iv
# Type: ADME, organism-based
# CONDITION DESCRIPTION: in vivo, read-out: beta t1/2 (converted)
MEASURE NAME: half-life

- Cc1c(C(F)(F)F)nc(-c2ccc(Cl)o2)n1-c1c(Cl)ccc(N2CC(C(=O)O)C2)c1Cl (single isomer, unassigned; atropisomer): 4.6 h
- Cc1c(CC(C)C)nc(-c2ccc(Cl)o2)n1-c1c(Cl)ccc(N2CC(C(=O)O)C2)c1Cl (single isomer, unassigned; atropisomer): 0.2 h
- Cc1c(C2(C(F)(F)F)CC2)nc(C2CC2)n1-c1c(Cl)ccc(N2CC3(CC(C(=O)O)C3)C2)c1Cl (single isomer, unassigned; atropisomer): 5.3 h
